Target: UniProt Q96SW2
quantity_kind: Ki

compound="O=C1CCC(c2c(F)cc(N3CC(NC(=O)OCC4CCCCC4)C3)cc2F)C(=O)N1 (stereo not shown)" quantity_kind=Ki measured="≤ 100 nM"
compound="O=C1CCC(c2c(F)cc(N3CC(NC(=O)OC4CN(C(=O)N5CCc6ccccc65)C4)C3)cc2F)C(=O)N1 (stereo not shown)" quantity_kind=Ki measured="≤ 100 nM"
compound="CC1(CCc2nnc(NC3CN(c4cc(F)c(C5CCC(=O)NC5=O)c(F)c4)C3)o2)CC1 (stereo not shown)" quantity_kind=Ki measured="≤ 100 nM"
compound="Cc1ccc(N(C)C(=O)N2CC(OC(=O)NC3CN(c4cc(F)c(C5CCC(=O)NC5=O)c(F)c4)C3)C2)c(C)c1 (stereo not shown)" quantity_kind=Ki measured="≤ 100 nM"
compound="O=C1CCC(c2c(F)cc(N3C[C@@H](NC(=O)OCC4CC5(CCC5)C4)CC3=O)cc2F)C(=O)N1 (stereo partly shown)" quantity_kind=Ki measured="100 to 1000 nM"
compound="O=C1CCC(c2c(F)cc(N3CC(NC(=O)OCc4ccccc4)C3)cc2F)C(=O)N1 (stereo not shown)" quantity_kind=Ki measured="100 to 1000 nM"
compound="N#Cc1ccc(C(=O)N2CC(OC(=O)NC3CN(c4cc(F)c(C5CCC(=O)NC5=O)c(F)c4)C3)C2)cc1 (stereo not shown)" quantity_kind=Ki measured="≤ 100 nM"

* * *

The following compounds are shown together with reported Ki values.
Biological target: CRBN-DDB1 (Homo sapiens (Human))
Sequence (Q96SW2 whole entry): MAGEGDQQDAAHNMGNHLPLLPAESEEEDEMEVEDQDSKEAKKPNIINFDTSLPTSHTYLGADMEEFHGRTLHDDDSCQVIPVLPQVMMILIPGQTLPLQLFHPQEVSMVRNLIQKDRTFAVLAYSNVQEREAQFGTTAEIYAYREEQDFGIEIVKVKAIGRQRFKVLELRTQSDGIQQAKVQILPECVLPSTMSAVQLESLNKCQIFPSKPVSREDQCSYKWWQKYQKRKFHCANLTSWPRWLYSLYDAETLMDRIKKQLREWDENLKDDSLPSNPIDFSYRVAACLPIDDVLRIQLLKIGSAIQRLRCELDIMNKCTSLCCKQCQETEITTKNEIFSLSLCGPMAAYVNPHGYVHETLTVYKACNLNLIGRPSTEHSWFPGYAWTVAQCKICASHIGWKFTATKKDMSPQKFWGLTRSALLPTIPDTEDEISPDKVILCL
Sequence (Q16531 whole entry partner): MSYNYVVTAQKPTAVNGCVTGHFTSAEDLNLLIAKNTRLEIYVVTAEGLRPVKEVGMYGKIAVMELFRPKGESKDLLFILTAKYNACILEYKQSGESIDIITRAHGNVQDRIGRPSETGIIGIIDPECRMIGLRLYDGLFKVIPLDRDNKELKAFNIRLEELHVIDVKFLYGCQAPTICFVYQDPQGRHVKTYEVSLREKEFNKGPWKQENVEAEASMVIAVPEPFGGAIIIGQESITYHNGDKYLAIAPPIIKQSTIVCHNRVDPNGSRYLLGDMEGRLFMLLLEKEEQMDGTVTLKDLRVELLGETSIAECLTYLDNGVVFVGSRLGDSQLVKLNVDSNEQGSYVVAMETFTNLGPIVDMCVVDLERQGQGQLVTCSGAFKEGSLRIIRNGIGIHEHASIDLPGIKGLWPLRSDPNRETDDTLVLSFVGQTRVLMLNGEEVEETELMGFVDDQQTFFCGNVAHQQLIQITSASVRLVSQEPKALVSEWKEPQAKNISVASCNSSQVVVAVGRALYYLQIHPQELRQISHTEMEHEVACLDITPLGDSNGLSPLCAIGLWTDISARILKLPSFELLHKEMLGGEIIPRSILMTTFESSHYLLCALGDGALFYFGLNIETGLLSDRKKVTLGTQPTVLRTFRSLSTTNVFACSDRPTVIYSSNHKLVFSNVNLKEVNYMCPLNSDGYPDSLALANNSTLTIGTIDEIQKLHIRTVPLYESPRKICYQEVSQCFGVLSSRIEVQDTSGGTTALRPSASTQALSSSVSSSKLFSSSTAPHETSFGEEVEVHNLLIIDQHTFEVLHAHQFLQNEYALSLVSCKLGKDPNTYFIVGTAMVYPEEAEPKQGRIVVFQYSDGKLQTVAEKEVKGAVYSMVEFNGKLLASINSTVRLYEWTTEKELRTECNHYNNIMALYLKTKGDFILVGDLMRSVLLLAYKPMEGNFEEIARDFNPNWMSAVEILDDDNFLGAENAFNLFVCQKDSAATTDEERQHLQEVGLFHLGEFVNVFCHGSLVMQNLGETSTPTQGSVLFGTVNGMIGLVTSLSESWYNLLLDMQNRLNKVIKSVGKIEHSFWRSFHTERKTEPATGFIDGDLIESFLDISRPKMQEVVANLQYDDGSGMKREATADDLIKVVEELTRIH
Test: CRBN HTRF assay (Cy5-Thalidomide probe displacement)
Type: binding
Conditions: CRBN-DDB1 2.5 nM, Cy5-Thalidomide 100 nM, 30 min; Ki from geometric mean IC50 by Cheng-Prusoff
quantity_kind: Ki

compound="O=C1CCC(c2ccc(N3CC(NC(=O)OCC4CC5(CCC5)C4)C3)cc2)C(=O)N1 (stereo not drawn)" quantity_kind=Ki measured="0.1 to 1 µM"
compound="CC(C)(C)[Si](C)(C)O[C@H]1C[C@@H](COC(=O)NC2CN(c3cc(F)c(C4CCC(=O)NC4=O)c(F)c3)C2)C1 (stereo partly drawn)" quantity_kind=Ki measured="0.1 to 1 µM"
compound="Cc1cccc(N2CC(OC(=O)NC3CN(c4cc(F)c(C5CCC(=O)NC5=O)c(F)c4)C3)C2)n1 (stereo not drawn)" quantity_kind=Ki measured="≤ 0.1 µM"
compound="CN(C)C(=O)C12CC(OC(=O)NC3CN(c4cc(F)c(C5CCC(=O)NC5=O)c(F)c4)C3)(C1)C2 (stereo not drawn)" quantity_kind=Ki measured="≤ 0.1 µM"
compound="[2H]C([2H])([2H])N(C(=O)N1CC(OC(=O)NC2CN(c3cc(F)c(C4CCC(=O)NC4=O)c(F)c3)C2)C1)c1ccc(C)cc1 (stereo not drawn)" quantity_kind=Ki measured="≤ 0.1 µM"
compound="Cc1ccc(N(C)C(=O)C23CC(OC(=O)NC4CN(c5cc(F)c(C6CCC(=O)NC6=O)c(F)c5)C4)(C2)C3)cc1 (stereo not drawn)" quantity_kind=Ki measured="≤ 0.1 µM"
compound="O=C1CCC(c2c(F)cc(N3CC(Nc4ncn(C5CC6(CCC6)C5)n4)C3)cc2F)C(=O)N1 (stereo not drawn)" quantity_kind=Ki measured="0.1 to 1 µM"
compound="O=C1CCC(c2c(F)cc(N3CC[C@H](NC(=O)OCC4CC5(CCC5)C4)C3)cc2F)C(=O)N1 (stereo partly drawn)" quantity_kind=Ki measured="0.1 to 1 µM"
compound="Cc1ccccc1-c1nnc(NC2CN(c3cc(F)c(C4CCC(=O)NC4=O)c(F)c3)C2)o1 (stereo not drawn)" quantity_kind=Ki measured="≤ 0.1 µM"
compound="O=C1CCC(c2c(F)cc(N3CC(NC(=O)OC4CN(C(=O)Cc5ccccc5)C4)C3)cc2F)C(=O)N1 (stereo not drawn)" quantity_kind=Ki measured="≤ 0.1 µM"
compound="CN(C)C(=O)N1CCC(OC(=O)NC2CN(c3cc(F)c(C4CCC(=O)NC4=O)c(F)c3)C2)CC1 (stereo not drawn)" quantity_kind=Ki measured="≤ 0.1 µM"
compound="COc1c(N2CC(Nc3nnc(C4CC5(CCC5)C4)o3)C2)ccc(C2CCC(=O)NC2=O)c1F (stereo not drawn)" quantity_kind=Ki measured="0.1 to 1 µM"
compound="CC(C)(C)[Si](C)(C)O[C@H]1C[C@H](COC(=O)NC2CN(c3cc(F)c(C4CCC(=O)NC4=O)c(F)c3)C2)C1 (stereo partly drawn)" quantity_kind=Ki measured="0.1 to 1 µM"
compound="COc1ccc(-c2nnc(NC3CN(c4cc(F)c(C5CCC(=O)NC5=O)c(F)c4)C3)o2)cc1 (stereo not drawn)" quantity_kind=Ki measured="≤ 0.1 µM"
compound="CN(CC1CC1)C(=O)C12CC(OC(=O)NC3CN(c4cc(F)c(C5CCC(=O)NC5=O)c(F)c4)C3)(C1)C2 (stereo not drawn)" quantity_kind=Ki measured="≤ 0.1 µM"

* * *

Biological target: CDK2 (Homo sapiens (Human), UniProt P24941)
Assay: CDK2 NanoBiT assay (HiBiT-tagged CDK2 degradation)
Type: cell-based
Conditions: HEK293, HEK293 clonal line, C-terminal HiBiT tag on CDK2, LgBiT; 24 hours
quantity_kind: Dmax

molecule="COc1c(N2CC(C)(Nc3nnc(-c4ccc(OC(F)(F)F)cc4)o3)C2)ccc(C2CCC(=O)NC2=O)c1F (stereo not shown)" tested_system="CDK2 (Homo sapiens (Human), UniProt P24941)" measured="50 to 80%"
molecule="O=C1CCC(c2c(F)cc(N3CC(Nc4nnc(CCC5CC5)o4)C3)cc2F)C(=O)N1 (stereo not shown)" tested_system="CDK2 (Homo sapiens (Human), UniProt P24941)" measured="10 to 50%"
molecule="O=C1CCC(c2c(Cl)cc(N3CC(NC(=O)OCC4CC5(CCC5)C4)C3)cc2Cl)C(=O)N1 (stereo not shown)" tested_system="CDK2 (Homo sapiens (Human), UniProt P24941)" measured="> 80%"
molecule="O=C1CCC(c2c(F)cc(N3CC(NC(=O)OC4CN(C(=O)N5CCCCC5)C4)C3)cc2F)C(=O)N1 (stereo not shown)" tested_system="CDK2 (Homo sapiens (Human), UniProt P24941)" measured="50 to 80%"
molecule="O=C1CCC(c2c(F)cc(N3CC(NC(=O)OC[C@@H]4C[C@H]5CC[C@@H]4C5)C3)cc2F)C(=O)N1 (stereo partly shown)" tested_system="CDK2 (Homo sapiens (Human), UniProt P24941)" measured="> 80%"
molecule="CC1(Nc2nnc(C3CC4(CCC4)C3)o2)CN(c2cc(F)c(C3CCC(=O)NC3=O)c(F)c2)C1 (stereo not shown)" tested_system="CDK2 (Homo sapiens (Human), UniProt P24941)" measured="50 to 80%"
molecule="O=C1CCC(c2c(F)cc(N3CC(NC(=O)OCc4ccccc4)C3)cc2F)C(=O)N1 (stereo not shown)" tested_system="CDK2 (Homo sapiens (Human), UniProt P24941)" measured="50 to 80%"

* * *

Biological target: UniProt:P24941
Test: CDK2 NanoBiT assay (HiBiT-tagged CDK2 degradation)
Type: cell-based
Conditions: HEK293, HEK293 clonal line, C-terminal HiBiT tag on CDK2, LgBiT; 24 hours
quantity_kind: Dmax

compound="CN(C(=O)N1CC[C@H](OC(=O)NC2CN(c3cc(F)c(C4CCC(=O)NC4=O)c(F)c3)C2)C1)C1CC1 (some centres unmarked)" quantity_kind=Dmax measured="10 to 50%"
compound="Cc1ccc(-c2nnc(N[C@H]3CN(c4cc(F)c(C5CCC(=O)NC5=O)c(F)c4)[C@@H]3C)o2)cc1 (some centres unmarked)" quantity_kind=Dmax measured="50 to 80%"
compound="CC(C)(C)[Si](C)(C)O[C@H]1C[C@@H](COC(=O)NC2CN(c3cc(F)c(C4CCC(=O)NC4=O)c(F)c3)C2)C1 (some centres unmarked)" quantity_kind=Dmax measured="> 80%"
compound="O=C1CCC(c2c(F)cc(N3CC(NC(=O)OC4CN(C(=O)N5CCC5)C4)C3)cc2F)C(=O)N1 (centres unmarked)" quantity_kind=Dmax measured="50 to 80%"
compound="CN(C)C(=O)N1CCC(OC(=O)NC2CN(c3cc(F)c(C4CCC(=O)NC4=O)c(F)c3)C2)CC1 (centres unmarked)" quantity_kind=Dmax measured="10 to 50%"
compound="Cc1ccccc1-c1nnc(NC2CN(c3cc(F)c(C4CCC(=O)NC4=O)c(F)c3)C2)o1 (centres unmarked)" quantity_kind=Dmax measured="> 80%"
compound="Cc1cccc(N(C)C(=O)C23CC(OC(=O)NC4CN(c5cc(F)c(C6CCC(=O)NC6=O)c(F)c5)C4)(C2)C3)c1C (centres unmarked)" quantity_kind=Dmax measured="10 to 50%"
compound="O=C1CCC(c2c(F)cc(N3CC(Nc4nnc(-c5cccnc5)o4)C3)cc2F)C(=O)N1 (centres unmarked)" quantity_kind=Dmax measured="50 to 80%"
compound="Cc1ccnc(N2CC(OC(=O)NC3CN(c4cc(F)c(C5CCC(=O)NC5=O)c(F)c4)C3)C2)c1 (centres unmarked)" quantity_kind=Dmax measured="50 to 80%"
compound="CN(C(=O)N1CC(OC(=O)NC2CN(c3cc(F)c(C4CCC(=O)NC4=O)c(F)c3)C2)C1)C1CC1 (centres unmarked)" quantity_kind=Dmax measured="50 to 80%"
compound="Cc1cc(N2CC(NC(=O)OC3CN(C(=O)N(C)C4CC4)C3)C2)cc(F)c1C1CCC(=O)NC1=O (centres unmarked)" quantity_kind=Dmax measured="50 to 80%"
compound="CC(C)(C)[Si](C)(C)O[C@H]1C[C@H](COC(=O)NC2CN(c3cc(F)c(C4CCC(=O)NC4=O)c(F)c3)C2)C1 (some centres unmarked)" quantity_kind=Dmax measured="> 80%"
compound="Cc1c(Cl)cccc1N(C)C(=O)C12CC(OC(=O)NC3CN(c4cc(F)c(C5CCC(=O)NC5=O)c(F)c4)C3)(C1)C2 (centres unmarked)" quantity_kind=Dmax measured="10 to 50%"
compound="COc1ccc(-c2nnc(NC3CN(c4cc(F)c(C5CCC(=O)NC5=O)c(F)c4)C3)o2)cc1 (centres unmarked)" quantity_kind=Dmax measured="> 80%"
